- tested_system: human D3R (Homo sapiens)
- Sequence (P35462 whole entry): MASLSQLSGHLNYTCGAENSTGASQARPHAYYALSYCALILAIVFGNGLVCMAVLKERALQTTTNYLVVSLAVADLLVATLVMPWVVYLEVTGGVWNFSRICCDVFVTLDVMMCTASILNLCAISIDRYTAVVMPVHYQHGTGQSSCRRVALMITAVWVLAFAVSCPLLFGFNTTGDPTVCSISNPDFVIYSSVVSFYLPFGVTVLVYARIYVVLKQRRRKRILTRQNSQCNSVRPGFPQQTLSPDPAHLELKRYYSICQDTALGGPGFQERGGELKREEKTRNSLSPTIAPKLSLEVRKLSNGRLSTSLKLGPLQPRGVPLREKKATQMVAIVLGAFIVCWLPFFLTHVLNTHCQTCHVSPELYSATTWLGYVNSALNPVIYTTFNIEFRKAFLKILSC
- procedure_details: Radioligand competition, [3H]spiperone, CHO cell membranes
- measurement_conditions: read-out: Ki hD3R; [3H]spiperone; mean ± SEM
reported_endpoint: Ki (nM)
// return numeric value only (unit: nM, not printed)

query: Any idea what its Ki is? The molecule is CCCN(CCCCc1cn(-c2ccc(C(=O)NCCCNC(=O)Cc3ccc4c(c3)C(C)(C)C3=C5C=C6C7=[N+](CCC6OC5CCN34)c3ccc(S(=O)(=O)[O-])cc3C7(C)C)cc2)nn1)C1Cc2ccccc2C1 (centres unmarked) [10b]
result: 0.9

More entries:
query: Any idea what its Ki is? The molecule is CCCN(CCCCc1cn(-c2ccc(C(=O)NCCCNC(=O)c3ccc(-c4c5ccc(=N)c(S(=O)(=O)O)c-5oc5c(S(=O)(=O)O)c(N)ccc45)c(C(=O)O)c3)cc2)nn1)C1Cc2ccccc2C1 [10c]
result: 0.76

Source listed as paper PMC7736868.
